- EXPERIMENT: in vitro
- MEASUREMENT PARAMETERS: African green monkey
Below, each entry is listed alongside its reported CC50.
Write the value in µM as a bare number.

Below: 5 compounds and their reported CC50.
Query (compound): COc1cc(NC(C(=O)N2CCc3c(C)cc(OC(F)(F)F)cc32)c2ccc(Cl)cc2OCCCC(=O)O)cc(-n2cncn2)c1 (single isomer, unassigned) [Compound 16A] ; field requested: CC50 11

Please do the same for COc1cc(NC(C(=O)N2CCc3ccc(C(F)(F)F)cc32)c2ccc(F)cc2OCCO)cc(-n2cncn2)c1 (racemic) [Compound 1] as well. 12

Same again, this time with COc1cc(NC(C(=O)N2CCc3ccc(OC(F)(F)F)cc32)c2ccc(F)cc2OCCO)cc(-n2cncn2)c1 (racemic) [Compound 3] 8.5

Can you check COc1cc(NC(C(=O)N2CCc3ccc(OC(F)(F)F)cc32)c2ccc(F)cc2OCCO)cc(-n2cncn2)c1 (single isomer, unassigned) [Compound 3A] next? 11

Also need COc1cc(NC(C(=O)N2CCc3ccc(OC(F)(F)F)cc32)c2ccc(Cl)cc2OCCC(C)(C)C(=O)O)cc(-n2cncn2)c1 (single isomer, unassigned) [Compound 14A] , thanks. 9.1

Then this compound:
What does the record list as CC50 for COc1cc(NC(C(=O)N2CCc3ccc(OC(F)(F)F)cc32)c2ccc(Cl)cc2OCCO)cc(-n2cncn2)c1 (racemic) [Compound 6] ? 3.3

---

Listing: CC50 of selected compounds
- EXPERIMENT: in vitro
- MEASUREMENT PARAMETERS: African green monkey
Numbers only; they are read as µM.

Completed entries (count: 3):
Which CC50 is listed for COc1cc(NC(C(=O)N2CCc3ccc(C(F)(F)F)cc32)c2ccc(Cl)cc2OCCCC(=O)O)cc(-n2cncn2)c1 (racemic) [Compound 11] ? 15

Repeat with COc1cc(NC(C(=O)N2CCc3cc(F)c(C(F)(F)F)cc32)c2ccc(Cl)cc2OCCO)cc(-n2cncn2)c1 (single isomer, unassigned) [Compound 7A] 11

Please do the same for COc1cc(NC(C(=O)N2CCc3ccc(OC(F)(F)F)cc32)c2ccc(Cl)cc2OCCC(C)(C)C(=O)O)cc(-n2cncn2)c1 (racemic) [Compound 14] as well. 10

Next:
I'd like to know its CC50. The compound in question is COc1cc(NC(C(=O)N2CCc3ccc(OC(F)(F)F)cc32)c2ccc(Cl)cc2OCCCC(=O)O)cc(-n2cncn2)c1 (single isomer, unassigned) [Compound 13A] 12

Also COc1cc(NC(C(=O)N2CCc3c(C)cc(OC(F)(F)F)cc32)c2ccc(Cl)cc2OCCCC(=O)O)cc(-n2cncn2)c1 (racemic) [Compound 16] , if possible. 11

Note, next up: COc1cc(NC(C(=O)N2CCc3cc(F)c(OC(F)(F)F)cc32)c2ccc(Cl)cc2OCCCC(=O)O)cc(-n2cncn2)c1 (racemic) [Compound 15] 11

---

- EXPERIMENT: in vitro
- MEASUREMENT PARAMETERS: African green monkey
Reported CC50 values follow for various compounds

Param item = COc1cc(NC(C(=O)N2CCc3ccc(C(F)(F)F)cc32)c2ccc(Cl)cc2OCCCC(=O)O)cc(-n2cncn2)c1 (single isomer, unassigned) [Compound 11A] ; retrieve measured CC50. 11 µM

***
Report CC50 for COc1cc(NC(C(=O)N2CCc3cc(OC)c(C(F)(F)F)cc32)c2ccc(F)cc2OCCO)cc(-n2cncn2)c1 (racemic) [Compound 2] please. 13 µM
